- experiment: NCI Yeast Anticancer Drug Screen. Data for the cln2 rad14 strain (AID 165);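 note: 0% = growth equal to vehicle treated cultures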
- setup_conditions: S. cerevisiae cln2 rad14 strain, at 5.0 µM (retest, dose inferred, filed as 0.5), stronger effect = higher value
Compounds without any hit were thinned out: in the full panel of roughly 79,000, 15% have a hit.
quantity: growth inhibition (%)
Your answer should be a plain number; it is taken to be in %.

## Input Indicate the recorded growth inhibition value for this molecule: COc1ccc(CN2CCCN(Cc3ccc(OC)cc3)C2Cc2cc(Cl)ccc2OC)cc1
## Output -6

## Input State its growth inhibition: Cc1ccc(O)c(C(c2cc(C)ccc2O)c2cc([N+](=O)[O-])ccc2O)c1
## Output 17

## Input Using known records, supply growth inhibition for CC(=O)O[C@H]1[C@@H]2CC(C)(C)CC2=C(C=O)C2(C=O)CC12C (stereo partly specified)
## Output 37

## Input Item COC(=O)c1c[nH]c2ccc(Br)cc12 : provide growth inhibition
## Output -9

## Input Note down growth inhibition recorded for S=C(NC(=S)Nc1ccccc1)Nc1ccccc1
## Output -8

## Input Please look at this molecule and report its growth inhibition: O=C1C(Br)=C(C2CCCCC2)C(=O)c2ccccc21
## Output 20

----------
- experiment: NCI Yeast Anticancer Drug Screen. Data for the cln2 rad14 strain (AID 165);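 note: 0% = growth equal to vehicle treated cultures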
- setup_conditions: S. cerevisiae cln2 rad14 strain, at 50.0 µM (retest, dose inferred, filed as 5.0)
About 79,000 compounds went through this panel and 15% of them were active in at least one assay; those are over-represented in the sample as a whole. Active and inactive are the calls of the source. Cut-off read from the data, not from the text of the source: active = growth inhibition above about 70%; inactive = the rest.
Select the matching outcome among active, inactive

## Input Assay outcome for NN(Cc1ccccc1)c1ccccc1 : what was it?
## Output active

## Input Could you please tell me the result logged for CC1=C(C(=O)Nc2cccc(Cl)c2)C(c2ccc([N+](=O)[O-])cc2)C(C(=O)Nc2cccc(Cl)c2)=C(C)N1 in this assay?
## Output inactive

## Input Call for entry CC(CCN)(CCN)[N+](=O)[O-] :
## Output inactive

## Input Returns: the outcome recorded for O=c1cccc(C2CCc3cc(O)ccc3C2)[nH]1 (stereo not drawn) in this assay.
## Output inactive

## Input Check the results log: what was the call for O=C1/C(=C\c2ccccc2)CCC/C1=C\O ?
## Output inactive

## Input Could you please tell me the result logged for CC(O)CC(O)CC1CCCO1 (stereo not drawn) in this assay?
## Output inactive

## Input For COC1CCC2(C)C(=CCC3C4CC(OC(C)=O)CC4(C)CCC32)C1 (stereo not drawn) , what call appears in the results of this test?
## Output inactive

## Input Called result for FC(F)(F)c1ccc(Cl)c(NC(=S)SC2CCCCC2)c1
## Output active

## Input For this molecule, state the assay outcome: CCCCOC(=O)c1cnc[nH]c1=O
## Output inactive

## Input # lookup: test call for CCCCCN(CCCCC)CC(=O)OCC1(C)CCCC2(C)C3CCC(C(C)C)=CC3=CCC12 (stereo not drawn)
## Output inactive

## Input Dear colleague, could you share the recorded outcome for COC(=O)c1cc(-c2c[nH]cc2C(=O)OCc2ccccc2)cn1S(=O)(=O)c1ccc(C)cc1 when you have a moment?
## Output inactive

## Input Called result for CC1CCN(SSc2nc3ccccc3s2)CC1
## Output active

## Input Record lookup: outcome of this test for CC(C)(C)C(=O)OC(N)/C=C/c1ccccc1 (stereo not drawn) ?
## Output inactive

## Input Recorded call for CC(C)(C)C(=O)Nc1ccc2c(c1)C(=O)c1ccccc1C2=O ?
## Output active

## Input Per the assay record, what outcome was assigned to N#CC1CCC(c2ccccc2)(c2ccccc2)C1=O (stereo not drawn) ?
## Output active

## Input I'd appreciate the recorded outcome for Clc1cc2n[nH]nc2c(Cl)c1Cl from this test.
## Output inactive

## Input Outcome logged for COc1cccc2c1C(=O)c1c(O)c3c(c(O)c1C2=O)C[C@@](O)(/C(C)=N\NC=O)C[C@@H]3OC1CC(N)C(O)C(C)O1 (stereo partly drawn) in this assay:
## Output inactive

## Input Dear colleague, could you share the recorded outcome for CC(=O)NC(C)(C)C1CCC(C)=C(c2ccccc2)C1 (stereo not drawn) when you have a moment?
## Output inactive

## Input Could you check what this test reported for COC(=O)c1ccc2ccccc2c1C(=O)c1ccc(F)cc1 ?
## Output active

## Input Status in this test for CSc1cccc(N2C(=O)C=CC2=O)c1 ?
## Output active

## Input Hello, I am checking results. What call was entered for CCCC(=O)N(C(=O)CCC)C1=C(Cl)C(=O)c2ccccc2C1=O ?
## Output inactive

## Input Which result was noted for this molecule in the test: CC(C)(C)C(=O)CC(=O)C(F)(F)C(F)(F)C(F)(F)F.CC(C)(C)C(=O)CC(=O)C(F)(F)C(F)(F)C(F)(F)F.CC(C)(C)C(=O)CC(=O)C(F)(F)C(F)(F)C(F)(F)F.[Er]
## Output inactive

## Input Could you please tell me the result logged for Cc1c2cnccc2c(C)c2c1c1ccccc1n2CCCN in this assay?
## Output inactive

----------
- experiment: NCI Yeast Anticancer Drug Screen. Data for the sgs1 mgt1 strain (AID 161);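 note: 0% = growth of cultures given vehicle only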
- setup_conditions: S. cerevisiae sgs1 mgt1 strain, at 5.0 µM (retest, dose inferred, filed as 0.5), stronger effect = higher value
Compounds without any hit were thinned out: in the full panel of roughly 79,000, 15% have a hit.
Assignment: determine reported growth inhibition for the given compounds.
Record the value in %, omitting the unit from your answer.

## Input Query growth inhibition for COc1ccc2nc3cc(Cl)ccc3c(Nc3ccc(O)c(CN4CCN(C)CC4)c3)c2c1
## Output 8

## Input Kindly indicate its recorded growth inhibition. Item: N#CC12CC3=C(N=C1NC1=C(CCc4ccccc41)C2)c1ccccc1CC3 (configuration not stated)
## Output 20

## Input Tell us which growth inhibition value is on record for C=CCSc1nc2ccccc2c(=O)n1Cc1ccco1
## Output 33

## Input Specify measured growth inhibition for O=C(c1ccc([N+](=O)[O-])cc1)c1[nH]c2ccccc2c(=O)c1-c1ccccc1 .
## Output 0

## Input Report growth inhibition for CCOC(=O)C1(C#N)C(=O)CSC1=Nc1ccccc1Cl (configuration not stated)
## Output -4

## Input Given CCOc1c(N=Nc2ccccc2OC)c(-c2ccccc2)nn1C(N)=S , respond with its growth inhibition.
## Output 26

## Input Entry Nc1ccc(O)c2ccccc12 needs its growth inhibition filled in; supply it.
## Output 7

## Input Tell me its growth inhibition given O=C(O)CSC(=S)N1CCCC1 as the entry.
## Output -4

## Input Quickly give me recorded growth inhibition for Clc1ccc(C(c2ccc(Cl)cc2)c2cncnc2)cc1
## Output 15

## Input Provide measured growth inhibition value, entry: Nc1ccc(CCCCCc2ccc(N)cc2)cc1
## Output 10

## Input Tell me growth inhibition reported for CC(=O)N=C1N(/C=C2\C(=O)Oc3ccccc3C2=O)C(=O)/C(=C/c2cccc(Cl)c2Cl)N1C
## Output -12

## Input For the compound c1ccc(-c2cc(CN3CCOCC3)c(-c3ccccc3)o2)cc1 , give its reported growth inhibition.
## Output 3

## Input Write down growth inhibition measured for item CC(CN(C)C)C(/C=C/c1ccc(Cl)c(Cl)c1)=N\Nc1ccccc1 (configuration not stated)
## Output 3

## Input Input O=C(CC1(O)CCCCC1)OC1CCCC1 , output reported growth inhibition.
## Output 1

## Input Fill in reported growth inhibition for this entry: CCCCCCCCCCCCCCCCCC[N+]1(CC)CCCCC1
## Output 99

## Input Annotate the compound O=C(c1ccc(Cl)cc1)C1OC12C(=O)Nc1c(Cl)cc(Cl)cc12 (configuration not stated) with its measured growth inhibition.
## Output 22

## Input Input CC1CCC(NCCOC(=O)c2ccc([N+](=O)[O-])cc2)CC1 (configuration not stated) , output reported growth inhibition.
## Output 1

## Input # return recorded growth inhibition for input ClCc1ccccc1Cc1ccccc1
## Output 27

## Input Using known records, supply growth inhibition for COc1ccc2c(c1)C=C([N+](=O)[O-])C(C1OC(C)(C)OC1C1COC(C)(C)O1)O2 (configuration not stated)
## Output 24

## Input Look up and state reported growth inhibition for O=C1C=C(c2ccccc2)S(=O)(=O)c2c(O)cccc21
## Output 80

## Input Identify measured growth inhibition associated with CCOC(=O)c1c(Cl)nc2ccccc2c1N=[N+]=[N-]
## Output -13

## Input # return recorded growth inhibition for input COc1ccc(OP2(Oc3ccc(OC)cc3)=NP(Oc3ccc(OC)cc3)(Oc3ccc(OC)cc3)=NP(Oc3ccc(OC)cc3)(Oc3ccc(OC)cc3)=NP(Oc3ccc(OC)cc3)(Oc3ccc(OC)cc3)=N2)cc1
## Output 71

----------
- experiment: NCI Yeast Anticancer Drug Screen. Data for the bub3 strain (AID 167)
- setup_conditions: S. cerevisiae bub3 mutant strain, at 50.0 µM (retest, dose inferred, filed as 5.0)
About 79,000 compounds went through this panel and 15% of them were active in at least one assay; those are over-represented in the sample as a whole. Activity calls are given as the source filed them. Cut-off read from the data, not from the text of the source: active = growth inhibition above about 70%; inactive = the rest.
Select the matching outcome among active, inactive

## Input Could you check what this test reported for COC(=O)C(=O)C(C(=O)Nc1cccc(C)c1C)C1Sc2ccccc2NC1=O (stereo unspecified) ?
## Output inactive

## Input Answer briefly: the call reported for CCCCN1CCN(c2ccc([N+](=O)[O-])c3no[n+]([O-])c23)CC1 in this assay.
## Output active

## Input // param item: O=S(=O)(Nc1ccccn1)c1ccc(N=Cc2c3ccccc3nc3cc(Cl)ccc23)cc1 ; yields the recorded call
## Output inactive

## Input Per the assay record, what outcome was assigned to COc1ccc2nc(-c3ccc(Cl)cc3)[nH]c2c1 ?
## Output active

## Input What outcome does the record of this test show for O=C1CC(O)C=C1Nc1ccc(Cl)cc1 (stereo unspecified) ?
## Output inactive

## Input Query: recorded result category for COc1ccc(C(=O)c2cc(Cl)ccc2N)cc1 in this test
## Output active
